Tested On: T1, hUCN1 (NT Biotin) (human, UniProt P55089 83-122, biotin at the N-terminus)
T1 construct: also called human UCN1 (NT biotin)
T1 peptide (looked up): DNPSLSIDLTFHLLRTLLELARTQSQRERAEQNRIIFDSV
Measurement Notes: ELISA, biotin peptide on streptavidin plate
Description: Streptavidin (Thermo, Cat: 21125) was diluted in PBS to a concentration of 2 μg/ml. 100 μl of diluted streptavidin was added per well to ELISA microplates, and the plates were incubated overnight at 4° C. […] 100 μL of ELISA stopping solution (Solarbio, Cat #: C1058) was added to terminate the reaction, and the optical density at 450 nm (OD450 nm) was determined by an ELISA plate reader (Molecular Devices, Spectra max 384 plus).
Measured Metric: EC50 (pM)
Numbers only, in pM.

>>> quantitative_result("PR302309-8 (antibody, human IgG1, kappa, V domains shown, Humanized variant of PR302309) VH: QIQLVQSGSELKKPGASVKVSCKASGYTFTNYGMNWVRQAPGQGLEWMGWINTYTGEPIYTDDFKGRFVFSLDTSVSTAYLQISSLKAEDTAVYYCSRSTMITTGGVFAYWGQGTLVTVSS VL: DVVMTQSPLSLPVTLGQPASISCRSSQTIVHSDGNTYLEWYQQRPGQSPRLLIYKVSNRFSGVPDRFSGSGSGTDFTLKISRVEAEDLGVYYCFQGSHVPWTFGGGTKVEIKR")
126
>>> quantitative_result("PR302341-60 (antibody, human IgG1, kappa, V domains shown, Humanized, PTM-removed variant of PR302341) VH: QVQLVQSGAEVKKPGASVKVSCKASGYTFTDYFMKWVRQAPGQRLEWMGVINPNQGDIFYNQKFKGRVTITRDTSASTAYMELSSLRSEDTAVYYCARGTDRALFAYWGQGTLVTVSS VL: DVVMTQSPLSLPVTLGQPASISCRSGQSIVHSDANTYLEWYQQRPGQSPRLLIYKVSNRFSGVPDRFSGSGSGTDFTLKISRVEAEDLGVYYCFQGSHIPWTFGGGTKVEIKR")
26

Okay, now this binder:
Task item: Field request: EC50 | item: PR302341-48 (antibody, human IgG1, kappa, V domains shown, Humanized, PTM-removed variant of PR302341) VH: QVQLVQSGAEVKKPGASVKVSCKASGYTFTDYFMKWVRQAPGQGLEWMGVINPNQGDIFYNQKFKGRVTMTVDKSTSTAYMELSSLRSEDTAVYYCARGTDRALFAYWGQGTLVTVSS VL: DVVMTQTPLSSPVTLGQPASISCRSGQSIVHSDANTYLEWYQQRPGQPPRLLIYKVSNRFSGVPDRFSGSGAGTDFTLKISRVEAEDLGVYYCFQGSHIPWTFGGGTKVEIKR
Reply: 17

Value source: patent US20260042834A1
